Cited source: PubChem BioAssay

assay: modulators of glucocorticoid suppression of NF-kB, cell-based, luciferase, IL-1B stimulus, dexamethasone (AID 624486); settings: NF-kB luciferase reporter, IL-1B + dexamethasone, luminescence; measured here: IL-1B alone, no Dex
quantity kind: z-score
Just the number, please, no unit after it.

| compound | readout number |
| --- | --- |
| Nc1nc(-c2ccc(F)cc2)c(-c2ccc3ncccc3n2)s1 | 0.965 |

Give recorded z-score. Nc1nccc(-c2c(-c3ccc(F)cc3)ncn2C2CCC(O)CC2)n1 (stereo unspecified)
1.26

Could you please provide reported z-score for CCn1c(-c2nonc2N)nc2c(N3CCCC3)nccc21 ? Thanks!
-0.655

Name the recorded z-score of the item Fc1ccc(-c2nn3ncccc3c2-c2ccnc(Nc3ccc4c(c3)OCCO4)n2)cc1 in your answer.
-1.27

Write down z-score measured for item CS(=O)(=O)CCNCc1ccc(-c2ccc3ncnc(Nc4ccc(OCc5cccc(C(F)(F)F)c5)cc4)c3c2)o1
-0.68

Return z-score (reported value) for this compound: CCNC(=O)C1CCCN2C(=O)CCC(NC(=O)C(Cc3ccc(OP(=O)(O)O)cc3)NC(C)=O)C(=O)N12 (stereo unspecified)
0.145

Give reported z-score value for O=C1Nc2ccc(C(=O)c3ccco3)cc2/C1=C/c1cc(Cl)c(O)c(Cl)c1
0.035

State its z-score: O=C1NC(=O)C(=Cc2ccc3ncccc3c2)S1
3.21

Report z-score for CCn1c(-c2nonc2N)nc2c(C#CC(C)(C)O)nc(O[C@@H](CN)c3ccccc3)cc21
3.44

For the compound Nc1c(C(=O)c2cccc(CCC3(O)CCCC3)c2)cnn1-c1ccc(F)cc1 , give its reported z-score.
-0.24

Return the recorded z-score value; entry: CN(C)C(=O)O[C@@H]1CN[C@@H](C#Cc2cc3ncnc(Nc4ccc(OCc5cccc(F)c5)c(Cl)c4)c3s2)C1
-0.155

Answer with reported z-score of O=C(Nc1n[nH]c2nc(-c3ccc(O)cc3)c(Br)cc12)C1CC1
0.485

Given COc1cc[nH]c1C=C1C(=O)Nc2ccc(F)c(C#CC3(O)CCOCC3)c21 , respond with its z-score.
-1.81

# return recorded z-score for entry COc1ccccc1-c1cc(/C=C2\C(=O)Nc3ncc(Br)cc32)cc(Br)c1O
-0.115
